Tested on: HCC-2998 colon
methodDescription: NCI-60 one-dose screen, 48 h (100 = growth as untreated, 0 = no growth, -100 = all killed)
conditionNotes: 10 µM
The panel holds about 83,000 compounds, 20% with a hit somewhere; the sample as a whole holds those more often. Active and inactive are the calls of the source. How the source made its calls: active means growth percent below 10; inactive means the rest.
Please go through the items and note down their growth.

Ask | I am curious: what growth value has been reported for `Nc1nc(Nc2ccc(Cl)cc2)nn1Cc1cccc(Br)c1` ?
Reply | 5.71% (active)

Ask | For `COc1ccc2nc(Nc3cccc(NC(=O)c4ccc(CN5CCN(C)CC5)c(C(F)(F)F)c4)c3)ccc2c1` then?
Reply | -99.4% (active)

Ask | For `COc1csc(/C=N/NC(=O)c2[nH]c3ccc(Br)cc3c2-c2ccccc2)c1` then?
Reply | 7.87% (active)

Ask | For `O=C1Nc2cc(-c3ccc(NC(=O)c4cccs4)cc3)ccc2/C1=C/c1ccc[nH]1` then?
Reply | 79.5% (inactive)

Ask | For `CC(C)c1ccc(C(=O)Nc2sc3c(c2C(N)=O)CCC(=O)C3=O)cc1` then?
Reply | 119% (inactive)

Ask | For `CN1C/C(=C\c2ccc(O)cc2O)c2[o+]c3cc(O)ccc3cc2C1` then?
Reply | 25.2% (inactive)

Ask | For `COc1ccc(C=CC(=O)c2ccc(-n3c(C)nc4c(cnn4-c4ccccc4)c3=O)cc2)cc1` then?
Reply | 86.8% (inactive)

Ask | For `Nc1nnc(-c2c[nH]c3ccc(F)cc23)c(-c2c[nH]c3ncccc23)n1` then?
Reply | 97.9% (inactive)

Ask | For `O=C(CSc1nnc(-c2ccc3nc(-c4ccc(Cl)cc4)[nH]c3c2)o1)Nc1ccc(Br)cc1` then?
Reply | 28.9% (inactive)

Ask | For `COc1ccc(CCN2C(=O)/C(=C/c3csc(C#N)n3)SC2=S)cc1OC` then?
Reply | 116% (inactive)

Ask | For `CN1CCN(c2ccc(Nc3nc(N4CCN(S(=O)(=O)c5ccc(F)cc5)CC4)c4sccc4n3)cc2)CC1` then?
Reply | -90.7% (active)

Ask | For `CN1CCN(c2ccc(Nc3nc(NCCCNC(=O)c4ccc(F)cc4)c4sccc4n3)cc2)CC1` then?
Reply | 66.4% (inactive)

Ask | For `O=C(/C=C/Nc1ccccc1)c1ccc2c(c1)Nc1ccccc1S2` then?
Reply | 95.4% (inactive)

Ask | For `N#Cc1c(Cl)nc(SCc2ccc(F)cc2)nc1-c1ccc(F)cc1` then?
Reply | 111% (inactive)

Ask | For `Cc1ccc(C(=O)NNC(=O)CSc2nc3ccccc3c(=O)[nH]2)cc1` then?
Reply | 105% (inactive)

Ask | For `CC(=O)Oc1ccccc1C(=O)Oc1ccc(C(=O)/C=C/c2ccncc2)cc1` then?
Reply | -14% (active)

Ask | For `Cc1ccc2nc(COc3ccc(C(=O)NNC(=S)NCCc4ccccc4)cc3)[nH]c2c1` then?
Reply | 73.9% (inactive)

Ask | For COC(=O)C(Cc1ccc(O)c(O)c1)NC(=O)C(CSC/C=C(\C)CCCC(C)CCCC(C)CCCC(C)C)NC(C)=O (stereo not given) then?
Reply | 19.3% (inactive)

Ask | For `Cc1cccc2cc(-c3cc(-c4ccccc4)nc(=S)[nH]3)c(Cl)nc12` then?
Reply | 93.1% (inactive)

Ask | For `Cc1ccc(-c2cc(-c3cc4ccccc4nc3Cl)[nH]c(=S)n2)cc1` then?
Reply | 77.3% (inactive)
